FYI, the data here is from patent US20090012089A1.

ASSAY_SYSTEM: human mGluR2 (Homo sapiens)
Construct: membrane preparation
Sequence (Q14416 19-872): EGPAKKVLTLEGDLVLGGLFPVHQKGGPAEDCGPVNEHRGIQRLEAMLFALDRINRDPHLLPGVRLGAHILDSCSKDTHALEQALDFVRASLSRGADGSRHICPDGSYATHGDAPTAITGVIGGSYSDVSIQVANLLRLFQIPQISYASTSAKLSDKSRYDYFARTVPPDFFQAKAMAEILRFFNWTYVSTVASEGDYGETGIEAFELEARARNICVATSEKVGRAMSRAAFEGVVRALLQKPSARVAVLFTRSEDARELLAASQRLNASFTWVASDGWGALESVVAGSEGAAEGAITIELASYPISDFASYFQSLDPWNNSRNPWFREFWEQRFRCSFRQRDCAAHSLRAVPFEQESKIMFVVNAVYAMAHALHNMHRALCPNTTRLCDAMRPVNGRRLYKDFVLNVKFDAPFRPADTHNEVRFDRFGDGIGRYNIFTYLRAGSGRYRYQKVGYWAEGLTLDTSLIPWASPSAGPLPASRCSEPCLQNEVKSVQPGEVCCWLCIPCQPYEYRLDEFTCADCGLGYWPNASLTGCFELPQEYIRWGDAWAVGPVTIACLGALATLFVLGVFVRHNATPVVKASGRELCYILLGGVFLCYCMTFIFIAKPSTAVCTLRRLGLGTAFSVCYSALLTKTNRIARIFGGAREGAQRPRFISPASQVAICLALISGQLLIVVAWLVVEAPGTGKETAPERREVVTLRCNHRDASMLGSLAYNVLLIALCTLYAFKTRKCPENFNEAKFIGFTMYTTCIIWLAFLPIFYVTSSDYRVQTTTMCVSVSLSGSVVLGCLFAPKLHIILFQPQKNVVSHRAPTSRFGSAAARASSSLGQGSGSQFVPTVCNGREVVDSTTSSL
PROTOCOL_NOTES: [35S]-GTPγS binding assay of mGluR2 receptor activation (allosteric activator activity) with CHO cell membranes
ASSAY_CONDITIONS: membranes from CHO cells stably expressing human mGluR2; in presence of 1 μM glutamate
pEC50 reference
Note on units: pEC50 is unitless, being -log10 of a concentration expressed in mol/L.

O=C(NC1CCN(Cc2ccccc2)C1)c1ccc(-c2ccc(CN3C[C@@H](c4ccccc4)OC3=O)cc2)cc1 (stereo in doubt)
6.92
O=C1OC(c2ccc(F)cc2)CN1Cc1ccc(Oc2ccccc2)cc1 (centres unmarked)
6.41
CN(C)CCNC(=O)c1cccc(-c2ccc(C3CN(Cc4ccc(Cl)cc4)C(=O)O3)cc2)c1 (centres unmarked)
5.51
COc1cncc(-c2ccc(C3CN(Cc4ccc(OC(F)(F)F)cc4)C(=O)O3)cc2)c1 (centres unmarked)
6.04

Next compound, pEC50 to be filled in.
Input: Identify measured pEC50 corresponding to O=C1O[C@H](c2ccccc2)CN1Cc1ccc(OC(F)(F)F)cc1
Output: 5.71
